TARGET UNDER TEST: Cyclin Dependent Kinase 1/Cyclin A2 (CDK1-cycA2) (Homo sapiens, UniProt P06493)
Construct: purchased ProQinase 0134-0054-1
Sequence (P06493 whole entry): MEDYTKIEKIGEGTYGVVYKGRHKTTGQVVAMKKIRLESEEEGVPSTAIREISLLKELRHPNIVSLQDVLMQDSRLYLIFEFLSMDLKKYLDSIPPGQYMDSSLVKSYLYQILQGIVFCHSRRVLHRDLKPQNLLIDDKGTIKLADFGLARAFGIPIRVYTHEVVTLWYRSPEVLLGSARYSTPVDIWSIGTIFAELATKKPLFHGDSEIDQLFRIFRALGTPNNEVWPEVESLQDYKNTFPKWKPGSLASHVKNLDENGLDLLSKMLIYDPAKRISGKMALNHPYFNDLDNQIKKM
Sequence (P20248 whole entry partner): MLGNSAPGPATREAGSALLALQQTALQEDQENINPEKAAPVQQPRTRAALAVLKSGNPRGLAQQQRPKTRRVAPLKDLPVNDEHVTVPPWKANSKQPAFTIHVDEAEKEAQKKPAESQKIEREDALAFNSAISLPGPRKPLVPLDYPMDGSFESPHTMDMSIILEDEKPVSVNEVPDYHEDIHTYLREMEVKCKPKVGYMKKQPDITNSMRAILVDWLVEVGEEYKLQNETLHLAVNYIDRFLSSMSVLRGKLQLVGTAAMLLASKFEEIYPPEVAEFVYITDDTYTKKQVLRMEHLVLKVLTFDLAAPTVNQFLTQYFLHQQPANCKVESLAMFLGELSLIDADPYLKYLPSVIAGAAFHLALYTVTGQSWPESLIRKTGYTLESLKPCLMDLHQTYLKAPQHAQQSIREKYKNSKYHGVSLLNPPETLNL
PROTOCOL DETAILS: CDK1-cycA2 TR-FRET (Lance) enzyme assay
Format: biochemical
APPLIED CONDITIONS: Table S, fold selectivity, enzymatic Ki ratio
RECORDED ENDPOINT: FS CDK1/CDK2

> print(dat)
                                    molecule  lt.gt.eq  observed.measurement
 1  CNC(=O)c1ccc(Nc2cc([C@H]3CC[C@@H](OC(=O)NC(C)(C)C)C3)[nH]n2)nc1         =                    47
 2  CNC(=O)c1ccnc(Nc2cc([C@H]3CC[C@@H](OC(=O)NC(C)(C)C)C3)[nH]n2)c1         =                    21
 3  Cc1ccncc1Nc1cc([C@H]2CC[C@@H](OC(=O)NC(C)(C)C)C2)[nH]n1         =                    78
 4  Cn1cc(Nc2cc([C@H]3CC[C@@H](OC(=O)NC(C)(C)C)C3)[nH]n2)ccc1=O         =                    36
 5  CC(C)(C)NC(=O)O[C@@H]1CC[C@H](c2cc(Nc3ncccn3)n[nH]2)C1         =                    68
 6  CC(C)(C)NC(=O)O[C@@H]1CC[C@H](c2cc(Nc3cccnn3)n[nH]2)C1         =                    18
 7  CC(C)(C)NC(=O)O[C@@H]1CC[C@H](c2cc(Nc3ccccc3)n[nH]2)C1 [Comparator E, reference compound]         =                    63
 8  CC(C)(C)NC(=O)O[C@@H]1CC[C@H](c2cc(Nc3ccncc3)n[nH]2)C1         =                    90
 9  CC(C)(C)NC(=O)O[C@@H]1CC[C@H](c2cc(Nc3ccnnc3)n[nH]2)C1         =                    54
10  Cc1cc(=O)n(C)nc1Nc1cc([C@H]2CC[C@@H](OC(=O)NC(C)(C)C)C2)[nH]n1         =                    31
11  Cn1nc(Nc2cc([C@H]3CC[C@@H](OC(=O)NC(C)(C)C)C3)[nH]n2)ccc1=O         >                    47
12  Cc1ncccc1Nc1cc([C@H]2CC[C@@H](OC(=O)NC(C)(C)C)C2)[nH]n1         =                   110
13  CC(C)(C)NC(=O)O[C@@H]1CC[C@H](c2cc(Nc3ccccn3)n[nH]2)C1         =                    44
14  Cc1cc(Nc2cc([C@H]3CC[C@@H](OC(=O)NC(C)(C)C)C3)[nH]n2)nn(C)c1=O         >                    59
15  Cc1ccc(Nc2cc([C@H]3CC[C@@H](OC(=O)NC(C)(C)C)C3)[nH]n2)cn1         =                    38
16  CC(C)NC(=O)O[C@@H]1CC[C@H](c2cc(Nc3cccnc3)n[nH]2)C1         =                    42

This collection of values is drawn from patent US20240425478A1.
